Kindly supply the reported Plant response rating, Soybean values for the records listed here.
- Test system: soybean (Glycine max)
- Test details: Test E greenhouse herbicide test, pre- and postemergence
- Format: in vivo
- Condition summary: Postemergence, 31 g ai/ha; visual, scale 0 no effect to 100 complete control
Give your answer as a number; write no unit.

Exercise: # query: Plant response rating, Soybean of entry CCc1sc2c(C)cc(C)cc2c1-c1c(O)c(C)nn(C)c1=O [Compound 57]
Solution: 10

Exercise: # query: Plant response rating, Soybean of entry Cn1nc(Br)c(O)c(-c2cccc3ccccc23)c1=O [Compound 20]
Solution: 20

Exercise: # query: Plant response rating, Soybean of entry Cc1nn(C)c(=O)c(-c2cccc3ccc(Br)cc23)c1O [Compound 126]
Solution: 10

Exercise: # query: Plant response rating, Soybean of entry Cc1ccc2sc(Br)c(-c3c(O)c(C)nn(C)c3=O)c2c1 [Compound 79]
Solution: 0

Exercise: # query: Plant response rating, Soybean of entry Cc1nn(C)c(=O)c(-c2ccc(Br)c3ccccc23)c1O [Compound 75]
Solution: 70

Exercise: # query: Plant response rating, Soybean of entry Cc1ccc2sc(C)c(-c3c(OC(=O)OC(C)C)c(C)nn(C)c3=O)c2c1 [Compound 66]
Solution: 0
